# target: human KDR enzyme (Homo sapiens)
# Construct: The cytoplasmic domain of the human KDR enzyme was cloned in the form of a GST fusion; GST
# Sequence (P35968 786-1356 limits assumed): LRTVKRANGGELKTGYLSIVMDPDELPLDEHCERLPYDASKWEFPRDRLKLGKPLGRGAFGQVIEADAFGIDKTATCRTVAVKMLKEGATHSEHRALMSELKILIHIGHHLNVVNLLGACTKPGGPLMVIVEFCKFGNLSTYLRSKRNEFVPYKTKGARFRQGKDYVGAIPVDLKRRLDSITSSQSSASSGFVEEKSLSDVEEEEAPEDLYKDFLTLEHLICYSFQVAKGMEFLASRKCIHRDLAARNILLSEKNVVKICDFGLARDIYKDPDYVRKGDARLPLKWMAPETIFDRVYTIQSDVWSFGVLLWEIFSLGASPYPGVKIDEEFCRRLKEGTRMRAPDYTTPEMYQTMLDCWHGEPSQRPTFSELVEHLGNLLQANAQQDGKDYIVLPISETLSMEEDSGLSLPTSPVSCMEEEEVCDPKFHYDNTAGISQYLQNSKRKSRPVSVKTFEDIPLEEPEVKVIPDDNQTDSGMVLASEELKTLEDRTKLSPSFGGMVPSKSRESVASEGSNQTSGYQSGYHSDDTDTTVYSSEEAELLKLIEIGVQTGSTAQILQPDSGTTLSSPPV
# protocol_description: KDR substrate phosphorylation assay (scintillation, 96-well plate)
pIC50: −log10 of the molar value. Structures can show the parent of a compound that is named as a salt.
measurement_name: pIC50

molecule=Cc1cc(-c2ccc3c(NC(=O)c4ccsc4)n[nH]c3c2F)ccc1NC(=O)Nc1cc(C(F)(F)F)ccc1F meas_value=7.82
molecule=O=C(Nc1n[nH]c2c(F)c(-c3ccc(NS(=O)(=O)c4cccc(Cl)c4Cl)cc3)ccc12)c1ccsc1 meas_value=5.73
molecule="O=C(Nc1ccc(-c2ccc3c(NC(=O)C4CCCN4)n[nH]c3c2F)cc1)Nc1cc(C(F)(F)F)ccc1F (stereo not drawn)" meas_value=5.98
molecule=O=C(Nc1ccc(-c2c(F)c(F)c3c(NC(=O)c4ccsc4)n[nH]c3c2F)cc1)Nc1cc(C(F)(F)F)ccc1F meas_value=6.16
molecule="Nc1n[nH]c2c(F)c(-c3ccc(NS(=O)(=O)c4cccc(Cl)c4Cl)cc3)ccc12 [Example 8, hydrochloride]" meas_value=5.18
molecule=O=C(Nc1ccc(-c2ccc3c(NC(=O)c4ccco4)n[nH]c3c2F)cc1)Nc1cc(C(F)(F)F)ccc1F meas_value=7.54

====

Reported IC50 values for the following compounds.
# target: human Tie2 (Homo sapiens, UniProt Q02763)
# Construct: amino acids of the intracellular domain 776-1124
# Sequence (Q02763 776-1124): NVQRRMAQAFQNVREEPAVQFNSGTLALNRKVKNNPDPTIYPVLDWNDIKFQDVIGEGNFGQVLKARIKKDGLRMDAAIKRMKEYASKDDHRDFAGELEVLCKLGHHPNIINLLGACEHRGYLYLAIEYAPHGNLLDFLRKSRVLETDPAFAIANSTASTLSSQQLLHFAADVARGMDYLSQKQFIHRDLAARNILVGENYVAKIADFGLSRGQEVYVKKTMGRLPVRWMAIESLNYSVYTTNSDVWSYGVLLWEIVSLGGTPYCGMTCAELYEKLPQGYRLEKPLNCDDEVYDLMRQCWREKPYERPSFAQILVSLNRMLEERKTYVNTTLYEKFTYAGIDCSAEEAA
# protocol_description: Tie2 assay of PLC phosphorylation (FlashPlate)
# test_conditions: read-out: IC 50 TIE2
Counter-ions that a name gives are not always drawn.
measurement_name: IC50 (nM)

compound=O=C(Nc1n[nH]c2c(F)c(-c3ccc(NS(=O)(=O)c4cccc(Cl)c4Cl)cc3)ccc12)c1ccsc1 meas_value=2
compound=Cc1ccc(-n2nc(C(C)(C)C)cc2NC(=O)Nc2ccc(-c3ccc4c(N)n[nH]c4c3F)cc2)cc1 meas_value=17
compound=CC(C)(C)c1cc(NC(=O)Nc2ccc(-c3ccc4c(NC(=O)c5ccsc5)n[nH]c4c3F)cc2)no1 meas_value=31
compound="Nc1n[nH]c2c(F)c(-c3ccc(NC(=O)Nc4cc(C(F)(F)F)ccc4F)cc3)ccc12 [Example 7, hydrochloride]" meas_value=51
compound=O=C(Nc1ccc(-c2ccc3c(NC(=O)c4ccsc4)n[nH]c3c2)cc1)Nc1cc(C(F)(F)F)ccc1F meas_value=18
compound="Nc1n[nH]c2c(F)c(-c3ccc(NS(=O)(=O)c4cccc(Cl)c4Cl)cc3)ccc12 [Example 8, hydrochloride]" meas_value=10
compound="Nc1ccc(-c2ccc3c(NC(=O)c4ccsc4)n[nH]c3c2F)cc1 [Example 4, hydrochloride]" meas_value=799

====

# target: Aurora2 (Homo sapiens, UniProt O14965)
# Construct: Aurora 2: whole recombinant protein comprising an N-terminal histidine tail; His tag (histidine tail) (N); made in house; host or cells: E. coli
# Sequence (O14965 whole entry): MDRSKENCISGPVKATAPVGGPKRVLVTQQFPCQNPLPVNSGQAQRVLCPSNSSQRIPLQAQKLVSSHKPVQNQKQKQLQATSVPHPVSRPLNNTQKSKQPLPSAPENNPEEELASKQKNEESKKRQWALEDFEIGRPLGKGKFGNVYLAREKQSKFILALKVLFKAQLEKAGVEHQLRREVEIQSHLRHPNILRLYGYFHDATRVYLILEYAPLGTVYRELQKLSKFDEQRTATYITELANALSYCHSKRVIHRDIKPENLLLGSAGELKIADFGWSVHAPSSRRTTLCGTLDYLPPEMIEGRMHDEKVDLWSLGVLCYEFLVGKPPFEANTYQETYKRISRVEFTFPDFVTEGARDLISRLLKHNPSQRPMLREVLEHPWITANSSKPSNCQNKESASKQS
# protocol_description: Aurora2 enzyme assay, NuMA substrate phosphorylation (Flashplate)
# Assay type: biochemical
# test_conditions: read-out: IC 50 Aurora2
pIC50: −log10 of the molar value. Counter-ions that a name gives are not always drawn.
measurement_name: pIC50

compound="O=C(Nc1ccc(-c2ccc3c(NC(=O)C4CCCN4)n[nH]c3c2F)cc1)Nc1cc(C(F)(F)F)ccc1F (centres unmarked)" target="Aurora2 (Homo sapiens, UniProt O14965)" measurement_name=pIC50 meas_value=5.47
compound=Cc1ccc(-n2nc(C(C)(C)C)cc2NC(=O)Nc2ccc(-c3ccc4c(N)n[nH]c4c3F)cc2)cc1 target="Aurora2 (Homo sapiens, UniProt O14965)" measurement_name=pIC50 meas_value=7.03
compound=O=C(Nc1ccc(-c2c(F)c(F)c3c(NC(=O)c4ccsc4)n[nH]c3c2F)cc1)Nc1cc(C(F)(F)F)ccc1F target="Aurora2 (Homo sapiens, UniProt O14965)" measurement_name=pIC50 meas_value=5.76
compound=O=C(Nc1ccccc1)Nc1ccc(-c2ccc3c(NC(=O)c4ccsc4)n[nH]c3c2F)cc1 target="Aurora2 (Homo sapiens, UniProt O14965)" measurement_name=pIC50 meas_value=7.85
compound=O=C(Nc1n[nH]c2c(F)c(-c3ccc(NS(=O)(=O)c4cccc(Cl)c4Cl)cc3)ccc12)c1ccsc1 target="Aurora2 (Homo sapiens, UniProt O14965)" measurement_name=pIC50 meas_value=7.43
compound=Nc1n[nH]c2c(F)c(-c3ccc(NC(=O)Nc4ccccc4F)cc3)ccc12 target="Aurora2 (Homo sapiens, UniProt O14965)" measurement_name=pIC50 meas_value=6.84
compound=CC(C)(C)c1cc(NC(=O)Nc2ccc(-c3ccc4c(NC(=O)c5ccsc5)n[nH]c4c3F)cc2)no1 target="Aurora2 (Homo sapiens, UniProt O14965)" measurement_name=pIC50 meas_value=7.19
compound=O=C(Nc1ccc(-c2ccc3c(NC(=O)c4ccco4)n[nH]c3c2F)cc1)Nc1cc(C(F)(F)F)ccc1F target="Aurora2 (Homo sapiens, UniProt O14965)" measurement_name=pIC50 meas_value=7.22
compound="Nc1ccc(-c2ccc3c(NC(=O)c4ccsc4)n[nH]c3c2F)cc1 [Example 4, hydrochloride]" target="Aurora2 (Homo sapiens, UniProt O14965)" measurement_name=pIC50 meas_value=6.33
compound=O=C(Nc1ccc(-c2ccc3c(NC(=O)c4ccsc4)n[nH]c3c2F)cc1)Nc1cc(C(F)(F)F)ccc1F target="Aurora2 (Homo sapiens, UniProt O14965)" measurement_name=pIC50 meas_value=7.44
compound="Nc1n[nH]c2c(F)c(-c3ccc(NC(=O)Nc4cc(C(F)(F)F)ccc4F)cc3)ccc12 [Example 7, hydrochloride]" target="Aurora2 (Homo sapiens, UniProt O14965)" measurement_name=pIC50 meas_value=6.76
compound=O=C(Nc1ccc(-c2ccc3c(NC(=O)c4ccsc4)n[nH]c3c2F)cc1F)Nc1cc(C(F)(F)F)ccc1F target="Aurora2 (Homo sapiens, UniProt O14965)" measurement_name=pIC50 meas_value=6.73
compound=CC(=O)Nc1n[nH]c2c(F)c(-c3ccc(NC(=O)Nc4cc(C(F)(F)F)ccc4F)cc3)ccc12 target="Aurora2 (Homo sapiens, UniProt O14965)" measurement_name=pIC50 meas_value=6.47
compound=O=C(Nc1ccc(-c2ccc3c(NC(=O)c4ccsc4)n[nH]c3c2F)cc1)Nc1cccc(C(F)(F)F)c1 target="Aurora2 (Homo sapiens, UniProt O14965)" measurement_name=pIC50 meas_value=7.55
compound=Nc1n[nH]c2c(F)c(-c3ccc(NC(=O)Nc4cccc(C(F)(F)F)c4)cc3)ccc12 target="Aurora2 (Homo sapiens, UniProt O14965)" measurement_name=pIC50 meas_value=7.04
compound=Nc1n[nH]c2c(F)c(-c3ccc(NC(=O)Nc4ccccc4)cc3)ccc12 target="Aurora2 (Homo sapiens, UniProt O14965)" measurement_name=pIC50 meas_value=7.20
compound="Nc1n[nH]c2cc(-c3ccc(NC(=O)Nc4cc(C(F)(F)F)ccc4F)cc3)ccc12 [Example 1, hydrochloride]" target="Aurora2 (Homo sapiens, UniProt O14965)" measurement_name=pIC50 meas_value=6.95
compound=O=C(Nc1n[nH]c2cc(-c3ccc(NS(=O)(=O)c4cccc(Cl)c4Cl)cc3)ccc12)c1ccsc1 target="Aurora2 (Homo sapiens, UniProt O14965)" measurement_name=pIC50 meas_value=6.88
compound=CC(C)(C)c1cc(NC(=O)Nc2ccc(-c3ccc4c(N)n[nH]c4c3F)cc2)no1 target="Aurora2 (Homo sapiens, UniProt O14965)" measurement_name=pIC50 meas_value=7.17
compound="Nc1n[nH]c2cc(-c3ccc(NS(=O)(=O)c4cccc(Cl)c4Cl)cc3)ccc12 [Example 2, hydrochloride]" target="Aurora2 (Homo sapiens, UniProt O14965)" measurement_name=pIC50 meas_value=6.70

====

Listing of entries alongside the reported IC50.
# target: human Tie2 (Homo sapiens, UniProt Q02763)
# Construct: amino acids of the intracellular domain 776-1124
# protocol_description: Tie2 assay of PLC phosphorylation (FlashPlate)
# test_conditions: read-out: IC 50 TIE2
Counter-ions that a name gives are not always drawn.
measurement_name: IC50 (nM)

compound="O=C(Nc1ccc(-c2ccc3c(NC(=O)c4ccccc4)n[nH]c3c2F)cc1)Nc1cc(C(F)(F)F)ccc1F [Example 18]" measurement_name=IC50 unit_abbreviation=nM meas_value=26
compound="Nc1n[nH]c2c(F)c(-c3ccc(NC(=O)Nc4cccc(C(F)(F)F)c4)cc3)ccc12 [Example 19]" measurement_name=IC50 unit_abbreviation=nM meas_value=231
compound="O=C(Nc1ccc(-c2ccc3c(NC(=O)c4ccsc4)n[nH]c3c2F)cn1)Nc1cc(C(F)(F)F)ccc1F [Example 24]" measurement_name=IC50 unit_abbreviation=nM meas_value=229
compound="Cc1ccc(-n2nc(C(C)(C)C)cc2NC(=O)Nc2ccc(-c3ccc4c(NC(=O)c5ccsc5)n[nH]c4c3F)cc2)cc1 [Example 16]" measurement_name=IC50 unit_abbreviation=nM meas_value=3
compound="Nc1n[nH]c2cc(-c3ccc(NC(=O)Nc4cc(C(F)(F)F)ccc4F)cc3)ccc12 [Example 1, hydrochloride]" measurement_name=IC50 unit_abbreviation=nM meas_value=1780
compound="O=C(Nc1ccc(-c2ccc3c(NC(=O)c4ccsc4)n[nH]c3c2F)cc1)Nc1ccccc1F [Example 14]" measurement_name=IC50 unit_abbreviation=nM meas_value=50
compound="O=C(Nc1ccc(-c2ccc3c(NC(=O)c4ccsc4)n[nH]c3c2F)cc1F)Nc1cc(C(F)(F)F)ccc1F [Example 11]" measurement_name=IC50 unit_abbreviation=nM meas_value=11
compound="CC(=O)Nc1n[nH]c2c(F)c(-c3ccc(NC(=O)Nc4cc(C(F)(F)F)ccc4F)cc3)ccc12 [Example 27]" measurement_name=IC50 unit_abbreviation=nM meas_value=143
compound="O=C(Nc1ccc(-c2ccc3c(NC(=O)c4ccsc4)n[nH]c3c2F)cc1)Nc1cc(C(F)(F)F)ccc1F [Example 6]" measurement_name=IC50 unit_abbreviation=nM meas_value=9
compound="O=C(Nc1ccccc1)Nc1ccc(-c2ccc3c(NC(=O)c4ccsc4)n[nH]c3c2F)cc1 [Example 12]" measurement_name=IC50 unit_abbreviation=nM meas_value=36
compound="Nc1n[nH]c2c(F)c(-c3ccc(NC(=O)Nc4ccccc4F)cc3)ccc12 [Example 22]" measurement_name=IC50 unit_abbreviation=nM meas_value=5850
compound="CC(C)(C)c1cc(NC(=O)Nc2ccc(-c3ccc4c(N)n[nH]c4c3F)cc2)no1 [Example 21]" measurement_name=IC50 unit_abbreviation=nM meas_value=174
compound="O=C(Nc1ccc(-c2ccc3c(NC(=O)C4CCCN4)n[nH]c3c2F)cc1)Nc1cc(C(F)(F)F)ccc1F (stereo not drawn) [Example 26]" measurement_name=IC50 unit_abbreviation=nM meas_value=626
compound="O=CNc1n[nH]c2c(F)c(-c3ccc(NC(=O)Nc4cc(C(F)(F)F)ccc4F)cc3)ccc12 [Example 28]" measurement_name=IC50 unit_abbreviation=nM meas_value=176
compound="O=C(Nc1ccc(-c2c(F)c(F)c3c(NC(=O)c4ccsc4)n[nH]c3c2F)cc1)Nc1cc(C(F)(F)F)ccc1F [Example 9]" measurement_name=IC50 unit_abbreviation=nM meas_value=46
